Listed next: entries and their corresponding Analgesic Activity A.
tested on: pain syndrome provoked in mice by injection of phenylbenzoquinone; test: analgesia test of Siegmund, Cadmus and Lu (phenylbenzoquinone-induced pain syndrome); type: in vivo, mice of Swiss strain; conditions: dose 150 mg/kg, oral, 30 minutes before phenylbenzoquinone; extensions counted over 10 minutes vs control
Answer format reminder: number followed by unit.

The measured Analgesic Activity A associated with C#CCOc1ccc2c(C)cc(=O)oc2c1 reads 98%

The measured Analgesic Activity A associated with Cc1cc(=O)oc2cc(OCC#CCN3CCOCC3)ccc12 reads 88%

The measured Analgesic Activity A associated with C#CCOc1ccc2ccc(=O)oc2c1 reads 55%

The measured Analgesic Activity A associated with C#CCOc1ccc2c(C)c(CC=C)c(=O)oc2c1 reads 81%
